assayTarget: A3R (Homo sapiens, UniProt P0DMS8)
Sequence (P0DMS8 1-318): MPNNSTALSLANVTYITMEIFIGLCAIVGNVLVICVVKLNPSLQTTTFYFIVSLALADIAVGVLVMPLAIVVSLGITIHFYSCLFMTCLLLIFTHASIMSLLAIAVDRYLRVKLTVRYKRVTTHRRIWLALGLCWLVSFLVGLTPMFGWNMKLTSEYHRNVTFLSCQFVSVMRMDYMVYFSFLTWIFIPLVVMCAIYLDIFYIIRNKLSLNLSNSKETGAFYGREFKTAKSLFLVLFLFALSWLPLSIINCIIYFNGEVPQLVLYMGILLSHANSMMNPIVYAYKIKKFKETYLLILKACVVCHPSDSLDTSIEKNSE
testProtocol: Activity assay of adenosine receptor modulators, A3R cAMP (Table 1)
In this section we review reported IC50 values for a set of molecules.

Here are 6 molecules together with their reported answers.
Cc1nc2nc(N[C@@H](C)c3cncc(F)c3)nc(C(=O)N3CC(NC(=O)NC4CCCC4)C3)c2s1 [Example 60]; 0.1 to 1 µM
Cc1nc2nc(N[C@@H](C)c3cncc(F)c3)nc(C(=O)N3CC(C(N)=O)C3)c2s1 [Example 33]; > 1 µM
CC(=O)NC[C@@H]1CCN(C(=O)c2nc(N[C@@H](C)c3cncc(F)c3)nc3nc(C)sc23)C1 [Example 52]; > 1 µM
Cc1nc2nc(N[C@@H](C)c3cncc(F)c3)nc(C(=O)N3CC(NC(=O)C4(C)CC4)C3)c2s1 [Example 54]; < 0.1 µM
CC(=O)Nc1ccc(CCNC(=O)c2nc(N[C@@H](C)c3cncc(F)c3)nc3nc(C)sc23)cc1 [Example 24]; > 1 µM
Cc1cc(C)cc(C(=O)NC2CN(C(=O)c3nc(N[C@@H](C)c4cccnc4)nc4nc(C)sc34)C2)c1 [Example 83]; > 1 µM

# get_value(readout='IC50', item= Cc1nc2nc(N[C@@H](C)c3cncc(F)c3)nc(C(=O)N3CCC3)c2s1 [Example 2] )
0.1 to 1 µM

# get_value(readout='IC50', item= CC(=O)NC1CN(C(=O)c2nc(N[C@@H](C)c3cncc(F)c3)nc3nc(C)sc23)C1 [Example 28] )
> 1 µM

# get_value(readout='IC50', item= Cc1nc2nc(N[C@@H](C)c3cccnc3)nc(C(=O)NC[C@H](C)O)c2s1 [Example 15] )
> 1 µM
